Ref: paper PMC1988858

# Kd annotations
Molecular target: UniProtKB P0A881
Enter your answer as a number in mM; do not include the unit.

[
  {
    "compound": "N[C@H](Cc1c[nH]c2ccccc12)C(=O)O",
    "Kd, mM": 3.1
  },
  {
    "compound": "N[C@@H](Cc1c[nH]c2ccccc12)C(=O)O",
    "Kd, mM": 0.22
  },
  {
    "compound": "N[C@@H](Cc1c[nH]c2ccc(O)cc12)C(=O)O [l-5-hydroxy-tryptophan, 5-hydroxy-L-tryptophan]",
    "Kd, mM": 6
  }
]

# input for lookup
q: API: value(readout=Kd, system=UniProtKB P0A881) for record Cc1ccc2[nH]cc(C[C@H](N)C(=O)O)c2c1
a: 0.06
